system: B16 melanocytes; assay: Viability of the cells, test of reduction of MTT; type: cell-based; conditions: 72 h; 30 μM
endpoint: Viability (MTT) % stimulated control (% stimulated control)
Unit % stimulated control implied. Number only.

Incoming: Recorded Viability (MTT) % stimulated control for O=C(NC1CCCC1NC(=O)C(F)=CCCCCCCCCOC1CCCCO1)C(F)=CCCCCCCCCOC1CCCCO1 (mixture of isomers) , please?
Outgoing: 116

Incoming: Recorded Viability (MTT) % stimulated control for O=C(NC1CCC(NC(=O)C(F)=CCCCCCCCCOC2CCCCO2)C1)C(F)=CCCCCCCCCOC1CCCCO1 (mixture of isomers) , please?
Outgoing: 78

Incoming: Recorded Viability (MTT) % stimulated control for O=C(NC1CCC(NC(=O)C(F)=CCCCCCOC2CCCCO2)C1)C(F)=CCCCCCOC1CCCCO1 (stereo not shown) [c8] , please?
Outgoing: 86

Incoming: Recorded Viability (MTT) % stimulated control for O=C(NC1CCC(NC(=O)C(F)=CCCCCCOC2CCCCO2)C1)C(F)=CCCCCCOC1CCCCO1 (stereo not shown) [c149] , please?
Outgoing: 87
